B1: CPEB3 Ribozyme (parent)
chain: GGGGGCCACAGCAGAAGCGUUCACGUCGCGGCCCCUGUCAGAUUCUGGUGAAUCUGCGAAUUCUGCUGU

- Variants of: B1
- Procedure Text: self-cleavage, relative activity (ratio to wild type); higher = more cleavage; co-transcriptional
Quantity Name: self-cleavage
Could you respond with only the numeric value?

query: Quick one: self-cleavage for U38G U64A ?
result: 0.163

query: Quick one: self-cleavage for G11U U38C ?
result: 0.756

query: Quick one: self-cleavage for C54A U64C ?
result: 0.483

query: Quick one: self-cleavage for C34A G47A ?
result: 0.915

query: Quick one: self-cleavage for U49G C57U ?
result: 0.282

query: Quick one: self-cleavage for G2C G17A ?
result: 0.0551

query: Quick one: self-cleavage for G17C U67C ?
result: 0.145

query: Quick one: self-cleavage for C18U G65A ?
result: 0.332

query: Quick one: self-cleavage for A16C C54G ?
result: 0.152

query: Quick one: self-cleavage for G37A U61A ?
result: 0.202

query: Quick one: self-cleavage for A16C C29G ?
result: 0.165
